Collected koff values appear next to each entry.
# SYSTEM TESTED: T1, rat serum albumin (rat, UniProt P02770 25-608)
# T1 construct: Bought protein, immobilized on a CM5 chip by amine coupling; also called Rat SA
# METHOD NOTES: SPR (Biacore 8K), albumin immobilized on CM5 chip, 25 C, 1:1 kinetic fit
Entry rule: numbers only, all in s⁻¹.

Answered cases to consult:
{"BINDER": "RLN Analog 4 (other, Single-chain fusion: VHH - (PGPQ)8 L1 - RLN2 B chain (desB1) - L2 - RLN2 A chain) EVQLLESGGGLVQPGGSLRLSCAASGRYIDETAVAWFRQAPGKEREFVAGIGGGVDITYYADSVKGRFTISRDNSKNTLYLQMNSLRPEDTAVYYCAARPGRPLITSKVADLYPYWGQGTLVTVSSPGPQPGPQPGPQPGPQPGPQPGPQPGPQPGPQSWMEEVIKLCGRELVRAQIAICGMSTWSGGGSGGSGGGQLYSALANKCCHVGCTKRSLARFC", "VALUE MEASURED": 0.0026}
{"BINDER": "RLN Analog 13 (other, Single-chain fusion: VHH - (G4Q)5 L1 - RLN2 A chain (desA1-4) - L2 - RLN2 B chain (desB1)) EVQLLESGGGLVQPGGSLRLSCAASGRYIDETAVAWFRQAPGKGREFVAGIGGGVDITYYADSVKGRFTISRDNSKNTLYLQMNSLRPEDTAVYYCAARPGRPLITSKVADLYPYWGQGTLVTVSSGGGGQGGGGQGGGGQGGGGQGGGGQALANKCCHVGCTKRSLARFCGGGSGGSGGGSWMEEVIKLCGRELVRAQIAICGMSTWS", "VALUE MEASURED": 0.0033}

Continue with the next binder.
[ask] Endpoint output: koff of RLN Analog 14 (other, Single-chain fusion: VHH - (PGPQ)8 L1 - RLN2 A chain (desA1-4) - L2 - RLN2 B chain (desB1)) EVQLLESGGGLVQPGGSLRLSCAASGRYIDETAVAWFRQAPGKGREFVAGIGGGVDITYYADSVKGRFTISRDNSKNTLYLQMNSLRPEDTAVYYCAARPGRPLITSKVADLYPYWGQGTLVTVSSPGPQPGPQPGPQPGPQPGPQPGPQPGPQPGPQALANKCCHVGCTKRSLARFCGGGSGGSGGGSWMEEVIKLCGRELVRAQIAICGMSTWS . Value?
[reply] 0.0032
